Molecular target: Sodium channel protein type 9 subunit alpha (Homo sapiens)
Assay: Inhibition of Nav1.7 (unknown origin) by whole-cell patch clamp assay
Sequence (Q15858 whole entry): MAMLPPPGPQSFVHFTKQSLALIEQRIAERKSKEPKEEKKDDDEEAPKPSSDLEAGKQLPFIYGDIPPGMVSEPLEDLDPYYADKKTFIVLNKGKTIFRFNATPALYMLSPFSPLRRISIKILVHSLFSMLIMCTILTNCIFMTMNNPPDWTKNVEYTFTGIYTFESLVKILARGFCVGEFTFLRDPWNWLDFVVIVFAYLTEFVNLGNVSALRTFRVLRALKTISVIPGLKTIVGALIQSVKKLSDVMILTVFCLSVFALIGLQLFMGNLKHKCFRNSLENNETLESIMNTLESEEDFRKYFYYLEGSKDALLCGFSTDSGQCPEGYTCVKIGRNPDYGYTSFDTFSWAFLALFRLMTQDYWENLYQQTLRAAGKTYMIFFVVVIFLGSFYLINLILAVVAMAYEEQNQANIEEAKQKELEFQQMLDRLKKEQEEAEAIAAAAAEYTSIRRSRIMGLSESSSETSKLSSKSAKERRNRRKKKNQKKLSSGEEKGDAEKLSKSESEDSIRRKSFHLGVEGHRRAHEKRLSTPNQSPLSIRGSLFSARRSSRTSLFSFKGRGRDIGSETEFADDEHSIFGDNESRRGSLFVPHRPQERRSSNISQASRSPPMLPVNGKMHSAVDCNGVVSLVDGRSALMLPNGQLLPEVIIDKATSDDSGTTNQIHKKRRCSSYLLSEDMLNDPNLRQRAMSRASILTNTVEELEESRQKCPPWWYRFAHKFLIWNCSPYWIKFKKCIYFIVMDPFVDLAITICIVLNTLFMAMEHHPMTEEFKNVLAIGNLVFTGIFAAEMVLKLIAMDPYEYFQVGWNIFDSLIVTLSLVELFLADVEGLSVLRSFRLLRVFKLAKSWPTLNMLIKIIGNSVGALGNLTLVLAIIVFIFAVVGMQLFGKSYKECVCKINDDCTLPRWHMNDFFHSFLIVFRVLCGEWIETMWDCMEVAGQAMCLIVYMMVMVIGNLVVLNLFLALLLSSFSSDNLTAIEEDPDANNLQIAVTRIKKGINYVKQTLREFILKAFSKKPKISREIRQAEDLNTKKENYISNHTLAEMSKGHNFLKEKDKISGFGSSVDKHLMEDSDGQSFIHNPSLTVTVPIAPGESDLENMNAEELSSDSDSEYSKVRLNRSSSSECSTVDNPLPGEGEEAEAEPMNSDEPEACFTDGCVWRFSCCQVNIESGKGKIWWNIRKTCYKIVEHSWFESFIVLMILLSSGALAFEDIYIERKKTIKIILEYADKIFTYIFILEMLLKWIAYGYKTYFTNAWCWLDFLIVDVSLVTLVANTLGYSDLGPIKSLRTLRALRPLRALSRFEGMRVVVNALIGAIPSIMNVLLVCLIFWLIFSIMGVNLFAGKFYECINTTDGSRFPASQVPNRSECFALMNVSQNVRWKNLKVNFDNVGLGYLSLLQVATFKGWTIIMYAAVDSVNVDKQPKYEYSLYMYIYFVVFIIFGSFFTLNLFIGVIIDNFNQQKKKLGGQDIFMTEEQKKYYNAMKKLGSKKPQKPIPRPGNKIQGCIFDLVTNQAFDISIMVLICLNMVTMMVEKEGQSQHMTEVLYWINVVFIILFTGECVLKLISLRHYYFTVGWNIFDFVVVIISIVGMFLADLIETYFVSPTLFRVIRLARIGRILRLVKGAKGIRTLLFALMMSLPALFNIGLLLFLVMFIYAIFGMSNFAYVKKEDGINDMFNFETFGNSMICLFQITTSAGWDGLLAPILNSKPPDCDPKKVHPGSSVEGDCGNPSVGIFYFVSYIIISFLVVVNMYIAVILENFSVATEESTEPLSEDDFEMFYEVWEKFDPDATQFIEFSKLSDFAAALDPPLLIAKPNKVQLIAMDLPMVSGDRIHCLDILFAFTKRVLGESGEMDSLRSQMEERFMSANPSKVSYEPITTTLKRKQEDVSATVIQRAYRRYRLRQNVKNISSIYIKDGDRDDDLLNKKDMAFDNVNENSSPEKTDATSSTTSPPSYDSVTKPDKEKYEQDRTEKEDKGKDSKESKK
readout.label: IC50 (nM)
Give the value in nM but do not write nM after it.

O=C(NS(=O)(=O)C1CC1)c1cc(Cl)c(OCCC2CCC3(CCN(Cc4ccsc4)CC3)C2)cc1F (stereo not drawn) :: 840
O=C(NS(=O)(=O)C1CC1)c1cc(Cl)c(OCCC2CCC3(CCN(Cc4ccccc4)CC3)C2)cc1F (stereo not drawn) :: 460

According to the records, this molecule C[C@H](NCc1ccc(OCc2ccccc2F)cc1)C(N)=O [RALFINAMIDE] displays IC50 of 35200

* * *

Target: Sodium channel protein type 9 subunit alpha (Homo sapiens, UniProt Q15858)
Test: Inhibition of human Nav1.7 expressed in HEK293 cells at 10 uM measured for 48 hrs by whole-cell patch clamp electrophysiology assay
Format: cell-based
Sequence (Q15858 whole entry, looked up): as the sequence (Q15858 whole entry) above
List of inhibition values.
Write the value in % as a bare number.

O=C(NS(=O)(=O)C1CC1)c1cc(Cl)c(OCCC2CCC3(CCN(Cc4cccc5ccccc45)CC3)C2)cc1F (centres undefined) :: 97.1
O=C(NS(=O)(=O)C1CC1)c1cc(C2CC2)c(OCCC2CCC3(CCN(Cc4ccccc4)CC3)C2)cc1F (centres undefined) :: 96.5
O=C(NS(=O)(=O)C1CC1)c1cc(Cl)c(OCCC2(F)CCN(Cc3cc(Cl)cc(Cl)c3)CC2)cc1F :: 89.6

With those in mind, consider the next compound.
Looking up CCN1CCC2(CCC(CCOc3cc(F)c(C(=O)NS(=O)(=O)C4CC4)cc3Cl)C2)CC1 (centres undefined) , I see its inhibition listed as 24.3

* * *

Target: Sodium channel protein type 9 subunit alpha (Homo sapiens, UniProt Q15858)
Experiment: Inhibition of human Nav1.7 expressed in HEK293 cells at 1 uM measured for 48 hrs by whole-cell patch clamp electrophysiology assay
Format: cell-based
Mark NOT MET for inhibition values under 20%, and MET for everything at or above.

O=C(NS(=O)(=O)C1CC1)c1cc(Cl)c(OCCC2CCC3(CCN(Cc4ccco4)CC3)C2)cc1F (configuration not stated) :: MET
O=C(NS(=O)(=O)C1CC1)c1cc(Cl)c(OCCC2CCC3(CCN(Cc4cccc5ccccc45)CC3)C2)cc1F (configuration not stated) :: MET
O=C(NS(=O)(=O)C1CC1)c1cc(Cl)c(OCCC2CCC3(CCN(Cc4cccc(C(F)(F)F)c4)CC3)C2)cc1F (configuration not stated) :: NOT MET
C[C@H](NCc1ccc(OCc2ccccc2F)cc1)C(N)=O [RALFINAMIDE] :: NOT MET
O=C(NS(=O)(=O)C1CC1)c1cc(Cl)c(OCCC2CCC3(CCN(Cc4ccsc4)CC3)C2)cc1F (configuration not stated) :: MET

As a next step, examine the compound that follows.
Q) Kindly determine if inhibition recorded for CCc1ccc(CN2CCC3(CCC(CCOc4cc(F)c(C(=O)NS(=O)(=O)C5CC5)cc4Cl)C3)CC2)cc1 (configuration not stated) is above or exactly 20%.
A) MET

* * *

Known pIC50 of a selection of molecules
Biological target: Sodium channel protein type 9 subunit alpha (Homo sapiens)
Experiment: Inhibition of Nav1.7 (unknown origin) by whole-cell patch clamp assay
Hey, just a heads up that pIC50 is the negative log base 10 of the concentration in molar.

Solved entries (count: 3):
O=C(NS(=O)(=O)C1CC1)c1cc(Cl)c(OCCC2CCC3(CCN(Cc4ccco4)CC3)C2)cc1F (centres undefined) :: 6.21
O=C(NS(=O)(=O)C1CC1)c1cc(F)c(OCCC2CCC3(CCN(Cc4ccccc4)CC3)C2)cc1F (centres undefined) :: 5.94
Cc1cc(C(=O)NS(=O)(=O)C2CC2)c(F)cc1OCCC1CCC2(CCN(Cc3ccccc3)CC2)C1 (centres undefined) :: 5.98

The record that follows has no pIC50 shown yet.
molecule O=C(NS(=O)(=O)C1CC1)c1cc(Cl)c(OCCC2(F)CCN(Cc3cc(Cl)cc(Cl)c3)CC2)cc1F , pIC50 observed: 6.00

* * *

# key: entry, value: IC50
Target: Sodium channel protein type 4 subunit alpha (Homo sapiens, UniProt P35499)
Sequence (P35499 whole entry): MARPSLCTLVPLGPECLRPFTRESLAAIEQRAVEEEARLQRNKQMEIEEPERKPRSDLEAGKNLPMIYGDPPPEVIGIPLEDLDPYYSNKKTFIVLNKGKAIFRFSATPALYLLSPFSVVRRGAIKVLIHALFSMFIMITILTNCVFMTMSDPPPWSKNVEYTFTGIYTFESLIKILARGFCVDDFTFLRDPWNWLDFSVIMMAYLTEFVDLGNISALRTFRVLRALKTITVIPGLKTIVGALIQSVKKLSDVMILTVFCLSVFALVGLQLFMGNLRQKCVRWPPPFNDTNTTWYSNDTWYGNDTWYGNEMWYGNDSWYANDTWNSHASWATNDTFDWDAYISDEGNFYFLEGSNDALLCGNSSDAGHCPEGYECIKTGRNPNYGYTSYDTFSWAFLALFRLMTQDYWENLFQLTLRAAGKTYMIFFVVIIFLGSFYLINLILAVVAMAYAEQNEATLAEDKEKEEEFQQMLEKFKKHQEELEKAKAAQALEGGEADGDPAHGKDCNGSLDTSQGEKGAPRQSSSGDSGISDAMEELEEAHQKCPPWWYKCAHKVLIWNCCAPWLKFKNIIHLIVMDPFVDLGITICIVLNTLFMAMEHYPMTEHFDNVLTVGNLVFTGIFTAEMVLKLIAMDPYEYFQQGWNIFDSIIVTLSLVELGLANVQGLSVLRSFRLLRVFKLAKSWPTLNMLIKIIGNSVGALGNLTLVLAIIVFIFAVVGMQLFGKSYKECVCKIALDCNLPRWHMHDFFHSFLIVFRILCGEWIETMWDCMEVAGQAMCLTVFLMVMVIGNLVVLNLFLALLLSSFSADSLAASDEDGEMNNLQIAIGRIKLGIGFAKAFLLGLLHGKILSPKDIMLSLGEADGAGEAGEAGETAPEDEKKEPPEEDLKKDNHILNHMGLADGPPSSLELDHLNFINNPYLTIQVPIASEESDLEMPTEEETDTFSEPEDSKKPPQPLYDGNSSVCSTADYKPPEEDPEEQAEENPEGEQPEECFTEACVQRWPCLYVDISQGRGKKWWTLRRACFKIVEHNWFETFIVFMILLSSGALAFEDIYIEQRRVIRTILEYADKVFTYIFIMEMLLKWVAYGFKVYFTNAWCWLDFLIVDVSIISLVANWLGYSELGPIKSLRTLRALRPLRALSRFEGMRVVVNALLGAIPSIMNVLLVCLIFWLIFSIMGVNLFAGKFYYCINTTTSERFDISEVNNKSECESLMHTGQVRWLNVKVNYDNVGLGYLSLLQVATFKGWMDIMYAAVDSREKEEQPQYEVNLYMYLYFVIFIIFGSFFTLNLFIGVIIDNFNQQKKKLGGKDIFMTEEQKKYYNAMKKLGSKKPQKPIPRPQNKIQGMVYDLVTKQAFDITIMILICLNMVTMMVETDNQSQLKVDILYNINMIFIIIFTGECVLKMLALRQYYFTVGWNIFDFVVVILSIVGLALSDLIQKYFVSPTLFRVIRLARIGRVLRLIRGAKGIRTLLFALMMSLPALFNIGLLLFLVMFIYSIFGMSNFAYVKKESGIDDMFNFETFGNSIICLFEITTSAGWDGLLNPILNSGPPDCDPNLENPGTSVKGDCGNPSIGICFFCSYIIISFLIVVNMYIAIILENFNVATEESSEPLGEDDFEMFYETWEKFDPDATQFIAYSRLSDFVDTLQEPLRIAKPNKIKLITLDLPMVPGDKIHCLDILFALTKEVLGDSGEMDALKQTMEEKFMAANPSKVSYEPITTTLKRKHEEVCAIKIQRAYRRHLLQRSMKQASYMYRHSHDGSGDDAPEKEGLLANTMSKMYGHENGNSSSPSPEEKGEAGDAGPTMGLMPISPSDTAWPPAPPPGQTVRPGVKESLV
Assay: Inhibition of Nav1.4 (unknown origin) by whole-cell patch clamp assay
# number only, unit µM dropped from output

O=C(NS(=O)(=O)C1CC1)c1cc(Cl)c(OCCC2(F)CCN(Cc3cc(Cl)cc(Cl)c3)CC2)cc1F :: 2.7

# IC50 (compound: O=C(NS(=O)(=O)C1CC1)c1cc(Cl)c(OCCC2CCC3(CCN(Cc4ccccc4)CC3)C2)cc1F (configuration not stated) ) is 4.88

* * *

Biological target: Sodium channel protein type 9 subunit alpha (Homo sapiens)
Assay: Inhibition of human Nav1.7 expressed in HEK293 cells at 1 uM measured for 48 hrs by whole-cell patch clamp electrophysiology assay
Assay type: cell-based
Listed molecules paired with reported inhibition
Enter your answer as a number in %; do not include the unit.

O=C(NS(=O)(=O)C1CC1)c1cc(Cl)c(OCCC2CCC3(CCN(CC4CCCCC4)CC3)C2)cc1F (stereo unspecified) :: 20.1
O=C(NS(=O)(=O)C1CC1)c1cc(Cl)c(OCCC2CCC3(CCN(Cc4ccc(Cl)cc4)CC3)C2)cc1F (stereo unspecified) :: 23.8
O=C(NS(=O)(=O)C1CC1)c1cc(Cl)c(OCCC2CCC3(CCN(CCCc4ccccc4)CC3)C2)cc1F (stereo unspecified) :: 21.2
COc1ccc(CN2CCC3(CCC(CCOc4cc(F)c(C(=O)NS(=O)(=O)C5CC5)cc4Cl)C3)CC2)cc1 (stereo unspecified) :: 31.1
O=C(NS(=O)(=O)C1CC1)c1cc(Cl)c(OCCC2CCC3(CCN(CCc4ccccc4)CC3)C2)cc1F (stereo unspecified) :: 27.5

# ---- query molecule ----
For record O=C(NS(=O)(=O)C1CC1)c1cc(Cl)c(OCCC2CCC3(CCN(Cc4ccccc4)CC3)C2)cc1F (stereo unspecified) the listed inhibition is 70.8

Cited source for all entries: ChEMBL document CHEMBL5257116
